B1: TRIM63 (parent)
chain: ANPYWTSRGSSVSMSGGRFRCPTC

# Variants of: B1
# protocolDetails: protein stability index of a GFP-peptide fusion (GPS, HEK-293T) (PSI 1-6); higher = more stable;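 also: lentivirally expressed fusions sorted by FACS into six bins by GFP to DsRed ratio, PSI derived from sequencing read proportions per bin multiplied by bin number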
# testConditions: c terminus: a fixed tail appended
I'd appreciate it if you could supply protein stability index values for the items below.
Give bare numbers.

Provide protein stability index values for the following items, in order.
1. G9S
2. S13W

1. 1.9
2. 1.79
